Reported values of AUC(0-inf) for individual entries
Test Details: AUC (0 to infinity) in CD-1/Swiss Webster mouse at 10 mg/kg, po by LC/MS/MS analysis
Assay type: ADME, organism-based
Parameters: time infinity, dose 10 mg/kg, route oral
Recorded Conditions: plasma

[[record]]
test_smiles = "CCCCCCCCCCCCC[C@H](O)C[C@H](O)[C@H](C)N"
observation_type = "AUC(0-inf)"
value_reported = "2.54 µM·h"


Next molecule, please.
q: Entry under review: CCCCCCCCCCCCC[C@H](O)C[C@H](O)[C@H](C)NC . Reported AUC(0-inf)?
a: 5.99 µM·h

* * *

Test Details: Apparent oral clearance in CD-1/Swiss Webster mouse at 10 mg/kg, po by LC/MS/MS analysis
Type: ADME, organism-based
Parameters: dose 10 mg/kg, route oral
Recorded Conditions: in vivo
Observation Type: CL/F (mL/min/kg)
Provide only the numeric value, understood in mL/min/kg.

[[record]]
test_smiles = "CCCCCCCCCCCCC[C@H](O)C[C@H](O)[C@H](C)NC"
value_reported = 83.3


Next molecule, please.
q: Entry under review: CCCCCCCCCCCCC[C@H](O)C[C@H](O)[C@H](C)N . Reported CL/F?
a: 217

* * *

Test Details: Apparent oral clearance in CD-1/Swiss Webster mouse at 30 mg/kg, po by LC/MS/MS analysis
Type: ADME, organism-based
Design: dose 30 mg/kg, route oral
Recorded Conditions: in vivo
Observation Type: CL/F (mL/min/kg)
Provide only the numeric value, understood in mL/min/kg.

[[record]]
molecule = "CCCCCCCCCCCCC[C@H](O)C[C@H](O)[C@H](C)N [ENIGMOL]"
value_reported = 233


Next molecule, please.
q: Entry under review: CCCCCCCCCCCCC[C@H](O)C[C@H](O)[C@H](C)NC . Reported CL/F?
a: 83.3

* * *

Test Details: Cmax in CD-1/Swiss Webster mouse at 30 mg/kg, po by LC/MS/MS analysis
Type: ADME, organism-based
Set-up: dose 30 mg/kg, route oral
Recorded Conditions: in vivo
Reported values of Cmax for individual entries
Provide only the numeric value, understood in nM.

[[record]]
test_smiles = "CCCCCCCCCCCCC[C@H](O)C[C@H](O)[C@H](C)NC"
value_reported = 1120


Next molecule, please.
q: Entry under review: CCCCCCCCCCCCC[C@H](O)C[C@H](O)[C@H](C)N . Reported Cmax?
a: 705

* * *

Test Details: AUC (0 to infinity) in CD-1/Swiss Webster mouse at 30 mg/kg, po by LC/MS/MS analysis
Format: ADME, organism-based
Design: time infinity, dose 30 mg/kg, route oral
Recorded Conditions: plasma
Observation Type: AUC(0-inf) (µM·h)
Provide only the numeric value, understood in µM·h.

[[record]]
compound = "CCCCCCCCCCCCC[C@H](O)C[C@H](O)[C@H](C)N [ENIGMOL]"
observation_type = "AUC(0-inf)"
unit_label = "µM·h"
value_reported = 6.96


q: Entry under review: CCCCCCCCCCCCC[C@H](O)C[C@H](O)[C@H](C)NC . Reported AUC(0-inf)?
a: 17.9

* * *

Test Details: Tmax in CD-1/Swiss Webster mouse at 10 mg/kg, po by LC/MS/MS analysis
Format: ADME, organism-based
Set-up: dose 10 mg/kg, route oral
Recorded Conditions: in vivo
Observation Type: Tmax (h)
Provide only the numeric value, understood in h.

[[record]]
test_smiles = "CCCCCCCCCCCCC[C@H](O)C[C@H](O)[C@H](C)NC"
value_reported = 4


Next compound, please.
q: Entry under review: CCCCCCCCCCCCC[C@H](O)C[C@H](O)[C@H](C)N . Reported Tmax?
a: 2

* * *

Reported values of Cmax for individual entries
Test Details: Cmax in CD-1/Swiss Webster mouse at 10 mg/kg, po by LC/MS/MS analysis
Assay type: ADME, organism-based
Set-up: dose 10 mg/kg, route oral
Recorded Conditions: in vivo
Provide only the numeric value, understood in nM.

[[record]]
test_smiles = "CCCCCCCCCCCCC[C@H](O)C[C@H](O)[C@H](C)N"
observation_type = "Cmax"
value_reported = 137


Next compound, please.
q: Entry under review: CCCCCCCCCCCCC[C@H](O)C[C@H](O)[C@H](C)NC . Reported Cmax?
a: 232

* * *

Test Details: AUC (0 to t) in CD-1/Swiss Webster mouse at 10 mg/kg, po by LC/MS/MS analysis
Type: ADME, organism-based
Design: dose 10 mg/kg, route oral
Recorded Conditions: plasma
Observation Type: AUC(0-t)
Just so you know, I need the unit written after the number.

[[record]]
molecule = "CCCCCCCCCCCCC[C@H](O)C[C@H](O)[C@H](C)NC"
value_reported = "3.86 µM·h"


Next molecule, please.
q: Entry under review: CCCCCCCCCCCCC[C@H](O)C[C@H](O)[C@H](C)N [ENIGMOL] . Reported AUC(0-t)?
a: 1.88 µM·h
